Listing of entries alongside the reported RP-LC retention time.
# protocol-text: gradient 5% acetonitrile 3 min, to 50% in 2 min, to 85% in 15 min, held 3 min, 100 µL/min
# condition-description: column: Zorbax Extend-C18 2.1 x 50 mm; eluents: water / acetonitrile, 0.1% formic acid
# value in s; strip the unit string

Some molecules with recorded RP-LC retention time:
molecule	RP-LC retention time [s]
O=C(COc1cccc2c(=O)[nH]ccc12)c1ccccc1	806
Cc1nn(C)c2nc(OC(C)C(=O)NCCc3ccc(Cl)cc3)cc(C(F)(F)F)c12 (centres undefined)	1080

Ask | I would be grateful if you could share the reported RP-LC retention time for `Cc1ccc(S(=O)(=O)Nc2cccc(-c3cn4ccccc4n3)c2)cc1C` .
Reply | 648

Ask | Give the measured RP-LC retention time of `CSc1cccc(NC(=O)Cn2c(-c3cnccn3)nc(C)c(C)c2=O)c1` .
Reply | 769

Ask | Data request, read-out RP-LC retention time, for `COc1ccc(NC(=O)C2CCN(c3cncnc3N3CCN(C)CC3)CC2)cc1Cl`
Reply | 585

====

# protocol-text: gradient 5% acetonitrile 3 min, to 50% in 2 min, to 85% in 15 min, held 3 min, 100 µL/min
# condition-description: column: Zorbax Extend-C18 2.1 x 50 mm; eluents: water / acetonitrile, 0.1% formic acid
Classes (RP-LC retention time): interval 1 = under 700 s, interval 2 = from 700 s up to 900 s, interval 3 = 900 s and over

compound	assigned-category
O=C(CCn1cnc2cc(-c3noc(/C=C/c4ccccc4)n3)ccc21)N1CCCC1	interval 2
COCc1cc2nn(CC(=O)Nc3c(C)cccc3C)c(=O)n2c(-c2ccccc2)n1	interval 3
COc1ccc(NC(=O)N2CCCn3nc(-c4cccc(Cl)c4)cc3C2)cc1F	interval 3
O=C(NC1CC(=O)N(C2CC2)C1)c1cc(-c2ccccc2)n[nH]1 (stereo not given)	interval 1
CC(=O)N1c2ccc(S(=O)(=O)N3CCCCC3)cc2CC1C(=O)NCCCN1CCCCC1 (stereo not given)	interval 1
O=S(=O)(c1cccc2nsnc12)N1CCCC(Cc2noc(-c3cnccn3)n2)C1 (stereo not given)	interval 2
O=C(c1cn2c(n1)CSCC2)N(Cc1ccccc1)Cc1ccco1	interval 2
Cc1nc(OCC(=O)Nc2ccc(F)cc2F)c2ccccc2n1	interval 2

Ask | Where would `COc1ccc(-c2cc(C)no2)cc1S(=O)(=O)N1CCN(c2ccccn2)CC1` land among the classes by reported RP-LC retention time?
Reply | interval 1

Ask | Place this compound in its band: `Cc1ccc(S(=O)(=O)Nc2ccc(Cn3cncn3)cc2)cc1Cl`
Reply | interval 2

Ask | Which category does the recorded RP-LC retention time put `C=CCN(Cc1nc(-c2cccc(C)c2)no1)C(=O)Nc1cccc(C)c1` in?
Reply | interval 3

Ask | // return the class label for CC(C)(C)C(O)CCNC(=O)C(=O)NC1CC1 (stereo not given)
Reply | interval 1

Ask | Sort into band: `COC(=O)c1scc(-c2ccc(C)cc2)c1S(=O)(=O)N1CCN(c2ccccn2)CC1`
Reply | interval 2

====

# protocol-text: gradient 5% acetonitrile 3 min, to 50% in 2 min, to 85% in 15 min, held 3 min, 100 µL/min
# condition-description: column: Zorbax Extend-C18 2.1 x 50 mm; eluents: water / acetonitrile, 0.1% formic acid
So basically, if RP-LC retention time comes in under 800 s it's Yes, and if it's 800 s or more it's No.

compound	assigned-category
CCn1cc(-c2nc(-c3cc(OC)cc(OC)c3)no2)c(=O)c2cc(F)c(N3CCOCC3)cc21	No
Cc1nn(C(C)C(=O)NCCCN(C)C2CCCCC2)c(=O)c2nn(-c3ccccc3)c(C)c12 (stereo not given)	Yes
C=Cc1ccc(CN2CCCN(c3ncccc3-c3nc(C4CC4)no3)CC2)cc1	Yes
CCCn1cnc2c(-c3ccccc3)csc2c1=O	No

Ask | For this compound, is RP-LC retention time lower than 800 s? `Cc1nn(CC(=O)N2CCN(c3ccccn3)CC2)c(=O)c2cccn12`
Reply | Yes

Ask | is_below(RP-LC retention time, 800 s) for `CCOc1cccc(CNC(=O)c2cn3c(n2)CCCC3)c1` ?
Reply | Yes

Ask | Does this compound meet the criterion RP-LC retention time < 800 s? `Cc1ccc(-c2nnc(-c3nc(NCc4ccccn4)c4ccccc4n3)o2)cc1`
Reply | Yes

Ask | hey, is RP-LC retention time for `CCc1nnc(-c2cc(C)n(CC(=O)Nc3cc(F)cc(F)c3)c2C)o1` lower than 800 s or not?
Reply | No
